Experiment: NCI Yeast Anticancer Drug Screen. Data for the bub3 strain (AID 167)
Conditions: S. cerevisiae bub3 mutant strain, at 3.7 µM
The panel holds about 79,000 compounds, 15% with a hit somewhere; the sample as a whole holds those more often. Calls of active or inactive are those of the source. No stated cut-off is given here; in the data, active means growth inhibition above about 70%; inactive means the rest.
Respond using exactly one of the listed classes: true (1) = active, false (0) = inactive

Known results for molecules:
MOLECULE | ASSIGNED CLASS
CC(C)(C)c1ccc2c(c1)C(=O)c1ccccc1C2=O | false (0)
COc1cccc(C(NC2=NCCC=N2)c2cc3c(cc2O)OCO3)c1O (configuration not stated) | false (0)
CC(C)(N=Nc1ccc(Cl)cc1)[N+](=O)[O-] | false (0)

Test call for this molecule, please: NC(N)=NC(N)=Nc1ccccc1 (tested in a mixture with another compound) false (0)

Test call for this molecule, please: `CCN(CC)CCNc1ccc2nc(C)n3c4ccc(OC)cc4c(=O)c1c23` false (0)

Test call for this molecule, please: `CC(=O)N1C=Cc2c(c(C)c3c([nH]c4ccccc43)c2C)C1` false (0)

Test call for this molecule, please: `Cc1oc2ccccc2c(=O)c1Cn1nnc2ccccc21` false (0)

Test call for this molecule, please: `CS(=O)(=O)O.[Ag]` true (1)

Test call for this molecule, please: O=CC1(F)CC1(c1ccccc1)c1ccccc1 (configuration not stated) false (0)

Test call for this molecule, please: `COC(=O)c1cnc(Cl)c([N+](=O)[O-])c1` false (0)

Test call for this molecule, please: `COc1cc(C(=O)C=O)cc(OC)c1OC` false (0)

Test call for this molecule, please: `COC(=O)C(=O)CC(=O)c1cccc(OC)c1` false (0)

---

Assay: NCI Yeast Anticancer Drug Screen. Data for the CLN2oe strain (AID 163);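 further: 0% = growth of vehicle-only control cultures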
Details: S. cerevisiae CLN2oe strain, at 3.7 µM, stronger effect = higher value
Protocol: Growth inhibition of yeast strains with defined genetic alterations is measured as a screen for potential anti-cancer activity. Selected strains with alterations in DNA damage repair or cell cycle control were exposed to compounds and growth inhibition was measured relative to vehicle treated controls. The strain used in this assay is CLN2oe
About 79,000 compounds went through this panel and 15% of them were active in at least one assay; those are over-represented in the sample as a whole.
ENDPOINT NAME: growth inhibition (%)
Answers are plain numbers, in %.

MOLECULE | READING UNIT | RESULT
COc1ccc2c(c1)CCCC(Br)C2=O (configuration not stated) | % | 11

Please report growth inhibition for every entry that follows.
1. Cc1nc2sc3c(c2c(=O)o1)CCCC3
2. CCCCCCCCCCCCCCCCCCNC(=S)/N=C/c1c(O)c2ccccc2[nH]c1=O

1. 1
2. -3

Please report growth inhibition for every entry that follows.
1. CCC(=O)C1=C(O)c2cc(OC)ccc2CC1C(=O)OC (configuration not stated)
2. Nc1ccc(/C=C/c2ccc3cccnc3c2)cc1
3. CCCCCCCCCCCCOCCOCCOCC(N)=O

1: -8; 2: 2; 3: -18

Please report growth inhibition for every entry that follows.
1. COC(=O)C1CCCCC1C(=O)Nc1ccccc1 (configuration not stated)
2. Oc1c2c(c(O)c3ccccc13)C1(N=N2)c2ccccc2Oc2ccccc21
3. Cc1ccc(S(=O)(=O)Nc2cccc3cccnc23)cc1
4. CCN(CC)CCNc1ccc2ncn3c4ccc(O)cc4c(=O)c1c23
5. CC(=O)/C(=C\c1ccc(Cl)c(Cl)c1)C(=O)C(C)CN(C)C (configuration not stated)
6. c1ccc(-c2cc(C3CO3)c3ccccc3n2)cc1 (configuration not stated)

-1
39
12
1
-2
-11
